Ref: ChEMBL document CHEMBL4513216

Catalogue of molecules with associated cytotoxicity at 10 µM
experiment: Toxicity liver stage against HepG2, at 10uM; type: cell-based; design: test concentration 10 uM, cell line HepG2-A16-CD81EGFP; conditions: human, HepG2-A16-CD81EGFP cells; read-out: INHIBITION
Just the number please, in %, no unit attached.

// below: answered molecules
[
  {
    "molecule": "Cc1cccc(NC(=O)C2(n3cnnn3)CCCCC2)n1",
    "quantitative_result": -1.05
  },
  {
    "molecule": "Cc1cc(C)nc(NC2CCN(CCOC(C)C)CC2)n1",
    "quantitative_result": -10.8
  },
  {
    "molecule": "CN(C)C(=O)CN1CCC2(CCN(S(=O)(=O)C3CC3)CC2)C1=O",
    "quantitative_result": 6.32
  },
  {
    "molecule": "Cc1cnc(N2CCCC3(COCCN(c4ccc(C)nn4)C3)C2)nc1 (centres undefined)",
    "quantitative_result": -126
  },
  {
    "molecule": "Cc1csc(-c2ccc(NC(=O)N3CCOCC3)cc2)n1",
    "quantitative_result": -9.2
  }
]

What the record says about COCc1nc(CN2C(=O)OC[C@@H]2C(C)C)no1 : cytotoxicity at 10 µM is -12.4

What the record says about CCCc1nc(Nc2cccc(C(N)=O)c2)c2c(n1)c(C)nn2CC : cytotoxicity at 10 µM is 3.31

What the record says about Cc1nnc(N2CC[C@H]3C[C@@H](C(=O)NC4CCCC4)O[C@H]3C2)s1 : cytotoxicity at 10 µM is 6.69

What the record says about CCC(CC)CNC(=O)N(C)C(C)c1ccccn1 (centres undefined) : cytotoxicity at 10 µM is -6.2

What the record says about c1cc(CNc2ncc(-c3cnccn3)c(C3CC3)n2)ccn1 : cytotoxicity at 10 µM is 24

What the record says about O=C(NC1CCCC1)C1CCN(c2cc(-n3ccnc3)ncn2)CC1 : cytotoxicity at 10 µM is -9.19

What the record says about COc1nn(C)c2c1CCCN(C(=O)c1ccccc1F)C2 : cytotoxicity at 10 µM is 11.5

What the record says about Cc1nc(C(C)C)sc1C(=O)N(C)Cc1nc(-c2ccccn2)no1 : cytotoxicity at 10 µM is -0.683

What the record says about Cc1nc(N2CCN(C(=O)NCc3cscn3)CC2)sc1C : cytotoxicity at 10 µM is -11.3

What the record says about COc1nn(C)cc1C(=O)N1CCC(c2nnc(-c3ccsc3)o2)CC1 : cytotoxicity at 10 µM is 8.08

###

experiment: Toxicity liver stage against HepG2, at 10uM; assay type: cell-based; design: test concentration 10 uM, cell line HepG2-A16-CD81EGFP; conditions: human, HepG2-A16-CD81EGFP cells; read-out: INHIBITION
Catalogue of compounds with associated cytotoxicity at 10 µM
Just the number please, in %, no unit attached.

// below: answered compounds
[
  {
    "compound": "CC(C)c1cc(C(=O)N[C@@H]2CC[C@@H](Oc3ccccc3)[C@@H]2O)on1",
    "unit_of_measurement": "%",
    "cytotoxicity at 10 µM": 2.27
  },
  {
    "compound": "CC(C)NC(=O)NCc1ccnc(N(C)C)n1",
    "unit_of_measurement": "%",
    "cytotoxicity at 10 µM": -3.63
  }
]

What the record says about Cn1ccc2ccc(C(=O)NC3CCOC(C)(C)C3)cc21 (stereo unspecified) : cytotoxicity at 10 µM is 3.13

What the record says about c1cnc(NCc2cncc3c2CCN(Cc2cccs2)C3)nc1 : cytotoxicity at 10 µM is 7.33

What the record says about Cc1c[nH]c(C(=O)N2CCCC2c2ccc(C(=O)N3CCSCC3)s2)n1 (stereo unspecified) : cytotoxicity at 10 µM is 2.73

What the record says about Cc1cccc(CN2CCc3ncnc(C4CC4)c3CC2)n1 : cytotoxicity at 10 µM is -158

###

assay: Toxicity liver stage against HepG2, at 10uM; type: cell-based; design: test concentration 10 uM, cell line HepG2-A16-CD81EGFP; conditions: human, HepG2-A16-CD81EGFP cells; read-out: INHIBITION
recorded_metric: cytotoxicity at 10 µM (%)
Just the number please, in %, no unit attached.

[
  {
    "molecule": "CCn1c(C)cc(C(=O)N2C[C@@H](C(=O)O)[C@H](c3ccccc3)C2)c1C",
    "cytotoxicity at 10 µM / %": -0.173
  },
  {
    "molecule": "CCNC(=O)N1CC[C@H]2CC(=O)N(C3CCCCC3)CC[C@H]2C1",
    "cytotoxicity at 10 µM / %": -1.08
  },
  {
    "molecule": "C[C@@H]1CN(c2nc(O)cc(Cc3ccccc3F)n2)C[C@H](C)O1",
    "cytotoxicity at 10 µM / %": 5.31
  }
]

What the record says about COc1ccccc1N1CCC(CNS(=O)(=O)c2cccs2)C1 (stereo not given) : cytotoxicity at 10 µM is 5.66

What the record says about CN(CC(=O)N1CCCC1Cn1cccn1)Cc1ccccc1 (stereo not given) : cytotoxicity at 10 µM is -2.12

###

Catalogue of molecules with associated cytotoxicity at 10 µM
assay: Toxicity liver stage against HepG2, at 10uM; assay type: cell-based; set-up: test concentration 10 uM, cell line HepG2-A16-CD81EGFP; conditions: human, HepG2-A16-CD81EGFP cells; read-out: INHIBITION
Just the number please, in %, no unit attached.

[
  {
    "molecule": "O=C(Nc1cccnc1)[C@H]1C[C@H]2OCC[C@H]2N(C(=O)c2ccsc2)C1",
    "unit_of_measurement": "%",
    "quantitative_result": -1.24
  },
  {
    "molecule": "Cc1ccc(F)c(C(=O)Nc2c(C(N)=O)n[nH]c2C)c1",
    "unit_of_measurement": "%",
    "quantitative_result": -0.587
  },
  {
    "molecule": "O=C(CCN1C(=O)CCC1=O)Nc1ccc(Oc2ccc(Cl)cc2)nc1",
    "unit_of_measurement": "%",
    "quantitative_result": -23.5
  },
  {
    "molecule": "COc1ccc(C(CC(=O)O)NC(=O)c2cc(C)on2)cc1 (centres undefined)",
    "unit_of_measurement": "%",
    "quantitative_result": 5.12
  }
]

What the record says about CN1CC(C(=O)NCCc2ccc(Br)cc2F)CC1=O (centres undefined) : cytotoxicity at 10 µM is 2.43

What the record says about CC(Cn1cccn1)NC(=O)C1=Cc2ccccc2OC1 (centres undefined) : cytotoxicity at 10 µM is 2.86

What the record says about CCc1c(C)nc2n(c1=O)CC(C(=O)Nc1ncccc1C)CS2 (centres undefined) : cytotoxicity at 10 µM is 7.14

###

assay: Toxicity liver stage against HepG2, at 10uM; format: cell-based; set-up: test concentration 10 uM, cell line HepG2-A16-CD81EGFP; conditions: human, HepG2-A16-CD81EGFP cells; read-out: INHIBITION
recorded_metric: cytotoxicity at 10 µM (%)
Just the number please, in %, no unit attached.

// below: answered molecules
[
  {
    "molecule": "CCCNC(=O)c1cncc(CC2CCCN(C)C2)c1 (stereo not given)",
    "quantitative_result": -16
  },
  {
    "molecule": "CCCn1cc(NC(=O)c2ccc(S(=O)(=O)CC)cc2)ccc1=O",
    "quantitative_result": 2.99
  },
  {
    "molecule": "CCCSc1ncc(-c2nccn2CCC(N)=O)cn1",
    "quantitative_result": -10.4
  },
  {
    "molecule": "O=C(c1cnccn1)N1CC2(CCN(Cc3ccsc3)C2)C1",
    "quantitative_result": -4.23
  },
  {
    "molecule": "Cc1cc(C(=O)N2CCOC(c3ccc(Cl)c(Cl)c3)C2)[nH]n1 (stereo not given)",
    "quantitative_result": 4.55
  }
]

What the record says about Cc1cc(C)cc(C(=O)NCCS(=O)(=O)N2CCSCC2)c1 : cytotoxicity at 10 µM is -12.5

What the record says about COCCOCCNc1cncc(Br)c1 : cytotoxicity at 10 µM is -1.33

What the record says about Cc1cnc(NC2CCN(CC(=O)Nc3ccccc3)CC2)nc1C : cytotoxicity at 10 µM is -5.47

What the record says about NC(=O)C1CCN(C(=O)c2ccc(OCc3cscn3)cc2)CC1 : cytotoxicity at 10 µM is -10.6

What the record says about Cc1nn(C)c(C)c1C1CCCN1C(=O)CCNc1ncccn1 (stereo not given) : cytotoxicity at 10 µM is -7.37

What the record says about CNC(=O)COc1ccc(-c2ccccc2)nc1 : cytotoxicity at 10 µM is 1.76

What the record says about c1cnc(N2CCCC(c3cncc(-n4ccnc4)n3)C2)nc1 (stereo not given) : cytotoxicity at 10 µM is -11.8

What the record says about CCN(CC)CC1CN(Cc2cccc(C#N)c2)Cc2nccn2C1 (stereo not given) : cytotoxicity at 10 µM is -127

What the record says about CN(C)C(=O)[C@H]1CCS(=O)(=O)[C@@H]2CN(c3ncccn3)C[C@H]12 : cytotoxicity at 10 µM is -103

What the record says about O=C(NCCn1nc2ccccn2c1=O)c1cc(-c2ccccc2)[nH]n1 : cytotoxicity at 10 µM is -28.5

What the record says about Cc1c(Br)cnn1C(C)C(=O)Nc1nncs1 (stereo not given) : cytotoxicity at 10 µM is -4.61

What the record says about CN1CCN(C)C2(CCN(C(=O)CC(F)(F)F)CC2)C1=O : cytotoxicity at 10 µM is 1.24

What the record says about CC(C)c1ccc(CNC(c2ccc(F)cn2)C(C)C)cc1 (stereo not given) : cytotoxicity at 10 µM is -4.45

What the record says about c1ccc2oc(CCCN3CCOC(Cn4cccn4)C3)nc2c1 (stereo not given) : cytotoxicity at 10 µM is 0.987

What the record says about Cc1nc(C)n(CC2CCCCN2CC(=O)Nc2cc(C)on2)n1 (stereo not given) : cytotoxicity at 10 µM is 2.67

What the record says about Cc1cnc(CNC2CCc3nc(C(C)C)nn3C2)cn1 (stereo not given) : cytotoxicity at 10 µM is 4.93

What the record says about COc1ccc(S(=O)(=O)NCCC(=O)NCc2ccoc2)cc1OC : cytotoxicity at 10 µM is 10.8

What the record says about N#Cc1ccc(N2CCN(c3cnccn3)CC2)cc1C(F)(F)F : cytotoxicity at 10 µM is 38.6

What the record says about Cc1ccnc(NCc2ccccc2N2CCOCC2)n1 : cytotoxicity at 10 µM is -0.268

What the record says about O=C(c1ccccc1)C1CCN(C(=O)CC2COCCN2)CC1 (stereo not given) : cytotoxicity at 10 µM is -163
